Hello, the source for this data is patent US5739302A, in case you need it.

Test: Incorporation of glycosides of 2-hydroxyestradiol into red blood cells
Type: in vitro ADME
Details: red blood cell suspension; 0.2 nmol compound; 37° C.; 1.0 min; read-out: residual amount in the incubation medium
MEASURE: remaining at 1 min (%)

C[C@]12CC[C@@H]3c4cc(O)c(O)cc4CC[C@H]3[C@@H]1CC[C@@H]2O [Example 2-OHE2, 2-hydroxyestradiol, reference compound] ... 4.4

###

Experiment: Solubility in water
Format: physicochemical
Conditions: per 1 mg; water; read-out: volume of water required to dissolve 1 mg
MEASURE: solubility

C[C@]12CC[C@@H]3c4cc(O)c(O)cc4CC[C@H]3[C@@H]1CC[C@@H]2O [Example 2-OHE2, 2-hydroxyestradiol, reference compound] ... < 333 µg/mL
